# ASSAY_REMARKS: Acute toxicity in the mouse, intraperitoneal
# DETAILS: mouse, in vivo, ip
VALUE_KIND: LD50 at 168 h

IN: What value of LD50 at 168 h has been reported for the following molecule? Nc1ncnc2c1ncn2[C@@H]1O[C@H](CNS(=O)(=O)NC(=O)[C@@H](N)Cc2ccccc2)[C@@H](O)[C@H]1O
OUT: 44 mg/kg

====

# Test system: aminoacyl-tRNA synthetases (aaRS) isolated from HeLa cells
# ASSAY_REMARKS: IC50 determination, aaRS charging and trichloroacetic acid precipitation assay, aaRS partially purified from HeLa cell extracts
# Format: biochemical
# DETAILS: preincubation 20 minutes at 25° C., reaction 5-20 minutes
Field: IC50. Provide a value for each of the compounds that follow.
Answer by giving the amount and then stating its unit.

Nc1ncnc2c1ncn2[C@@H]1O[C@H](CNS(=O)(=O)NC(=O)[C@@H](N)Cc2c[nH]c3ccccc23)[C@@H](O)[C@H]1O | 300 nM
C[C@@H](O)[C@H](N)C(=O)NS(=O)(=O)NC[C@H]1O[C@@H](n2cnc3c(N)ncnc32)[C@H](O)[C@@H]1O | 40 nM

For each of the compounds below, note its IC50.
1. Nc1ncnc2c1ncn2[C@@H]1O[C@H](CNS(=O)(=O)NC(=O)[C@@H](N)Cc2ccccc2)[C@@H](O)[C@H]1O
2. Nc1ncnc2c1ncn2[C@@H]1O[C@H](CNS(=O)(=O)NC(=O)[C@@H]2CCCN2)[C@@H](O)[C@H]1O
3. NCCCC[C@H](N)C(=O)NS(=O)(=O)NC[C@H]1O[C@@H](n2cnc3c(N)ncnc32)[C@H](O)[C@@H]1O
4. Nc1ncnc2c1ncn2[C@@H]1O[C@H](CNS(=O)(=O)NC(=O)[C@@H](N)CC(=O)O)[C@@H](O)[C@H]1O

OUT:
1: 5 nM; 2: 1 nM; 3: 8 nM; 4: 174 nM
